Target: T1, human DLL3 (human, UniProt Q9NYJ7 27-492, limits assumed)
T1 construct: also called hDLL3; DLL3 protein
T1 sequence: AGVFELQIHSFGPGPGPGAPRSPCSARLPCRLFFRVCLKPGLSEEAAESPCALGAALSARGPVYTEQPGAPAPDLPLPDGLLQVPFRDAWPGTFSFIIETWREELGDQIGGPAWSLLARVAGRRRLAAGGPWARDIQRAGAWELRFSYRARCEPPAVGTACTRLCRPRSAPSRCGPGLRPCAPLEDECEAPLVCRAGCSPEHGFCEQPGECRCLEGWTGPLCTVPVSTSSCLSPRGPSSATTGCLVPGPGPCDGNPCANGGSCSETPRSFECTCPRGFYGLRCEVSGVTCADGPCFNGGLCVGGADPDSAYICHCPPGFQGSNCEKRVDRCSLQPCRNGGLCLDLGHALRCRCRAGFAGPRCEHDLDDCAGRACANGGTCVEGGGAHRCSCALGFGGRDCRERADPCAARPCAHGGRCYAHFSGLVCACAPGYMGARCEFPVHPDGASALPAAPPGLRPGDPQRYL
Test: screen on immobilized hDLL3 or h293-hDLL3 cells
reported.endpoint: binding result

Query :: # input binder: SC16.81 (antibody, V domains shown, murine mAb) VH: QVQLKESGPVLVAPSQSLSITCTVSGFSLTSYGVHWVRQPPGKGLEWLGVIWAGGSTNYNSALMSRLSISKDNSKSQVFLKMNSLQTDDTAMYYCAKQGNFYAMDYWGQGTSVTVSS VL: QIVLTQSPAIMSASLGERVTLTCTASSSVSSSYLHWYQQKPGSSPKLWIYSTSNLASGVPTRFSGSGSGTSYSLRISSMEAEDAATYYCHQYNRSPLTFGAGTKLELK ; wanted: its binding result
Result :: binds

Query :: Would you kindly repeat that for SC16.121 (antibody, V domains shown, murine mAb) VH: EVQLVESGGGLVQPKGSLKLSCAASGFTFNTYAMNWVRQAPGKGLEWVARIRIKSNNYATYYADSVKDRFTISRDDSQNMLYLQMNNLKTEDTAVYYCVRQGYSYDWGPWFAYWGQGTLVTVSA VL: QIVLTQSPAIMSASPGEKVTITCSASSSVSYMHWFQQKPGTSPKLWIYSTSNLASGVPARFSGSGSGTSYSLTISRMEAEDAATYYCQQRSSYPPTFGGGTKLEIK ?
Result :: binds

Every entry's value here was drawn from patent US20190201542A1.
